# experiment: Triapine pharmacokinetics in plasma and erythrocytes
# Assay type: in vivo, human
# condition-info: human, erythrocytes, intravenous, 45 mg/m2
measurement-name: half-life (h)
Give just the number in h; leave the unit off.

Inquiry: Name the recorded half-life for NC(=S)NN=Cc1ncccc1N [Triapine] .
Reply text: 4.2

###

# experiment: Triapine pharmacokinetics in plasma and erythrocytes
# Format: in vivo, human
# condition-info: human, erythrocytes, intravenous, 45 mg/m2, Tmax, erythrocytes; Triapine 25 or 45 mg/m2, cycle 1 day 1; mean
measurement-name: Tmax (min)
// units = min; emit number, no label

Inquiry: Entry NC(=S)NN=Cc1ncccc1N : reported Tmax = ?
Reply text: 2.4
